# assayed-target: T1, His-tagged SARS-CoV-2 RBD T332-K529 with Pro-527 omitted (SARS-CoV-2, wild-type RBD (P0DTC2 …))
# T1 construct: also called isolated RBD
# protocol: ITC
# setup-conditions: both partners purified
endpoint-label: Kd (nM)

{"columns": ["binder", "reported"],
 "data": [
  ["nanobody H11 V101Y R103S (VHH, also called double mutant A101Y, R103S) VHH: QVQLVESGGGLMQAGGSLRLSCAVSGRTFSTAAMGWFRQAPGKEREFVAAIRWSGGSAYYADSVKGRFTISRDKAKNTVYLQMNSLKYEDTAVYYCAQTRYTSSLLSDYATWPYDYWGQGTQVTVSS", 5220],
  ["nanobody H11-H4 Y104S (VHH) VHH: QVQLVESGGGLMQAGGSLRLSCAVSGRTFSTAAMGWFRQAPGKEREFVAAIRWSGGSAYYADSVKGRFTISRDKAKNTVYLQMNSLKYEDTAVYYCAQTHYVSSLLSDYATWPYDYWGQGTQVTVSS", 409],
  ["nanobody H11-A10 (VHH) VHH: QVQLVESGGGLMQAGGSLRLSCAVSGRTFSTAAMGWFRQAPGKEREFVAAIRWSGGSAYYADSVKGRFTISRDKAKNTVYLQMNSLKYEDTAVYYCAGFSATRSLLSDYATWPYDYWGQGTQVTVSS", 60],
  ["nanobody H11-H6 (VHH) VHH: QVQLVESGGGLMQAGGSLRLSCAVSGRTFSTAAMGWFRQAPGKEREFVAAIRWSGGSAYYADSVKGRFTISRDKAKNTVYLQMNSLKYEDTAVYYCAGSKITRSLLSDYATWPYDYWGQGTQVTVSS", 57],
  ["nanobody H11-B5 (VHH) VHH: QVQLVESGGGLMQAGGSLRLSCAVSGRTFSTAAMGWFRQAPGKEREFVAAIRWSGGSAYYADSVKGRFTISRDKAKNTVYLQMNSLKYEDTAVYYCASYQATRSLLSDYATWPYDYWGQGTQVTVSS", 53],
  ["nanobody H11-H4 Q98R H100E (D4 hybrid) (VHH, also called H4-D4 hybrid; hybrid nanobody) VHH: QVQLVESGGGLMQAGGSLRLSCAVSGRTFSTAAMGWFRQAPGKEREFVAAIRWSGGSAYYADSVKGRFTISRDKAKNTVYLQMNSLKYEDTAVYYCARTEYVSYLLSDYATWPYDYWGQGTQVTVSS", 18]
]}
